The reported numbers originate from ChEMBL document CHEMBL2216752.

- TARGET SYSTEM: Carnitine O-palmitoyltransferase 1, liver isoform (Rattus norvegicus)
- Sequence (P32198 whole entry, canonical isoform): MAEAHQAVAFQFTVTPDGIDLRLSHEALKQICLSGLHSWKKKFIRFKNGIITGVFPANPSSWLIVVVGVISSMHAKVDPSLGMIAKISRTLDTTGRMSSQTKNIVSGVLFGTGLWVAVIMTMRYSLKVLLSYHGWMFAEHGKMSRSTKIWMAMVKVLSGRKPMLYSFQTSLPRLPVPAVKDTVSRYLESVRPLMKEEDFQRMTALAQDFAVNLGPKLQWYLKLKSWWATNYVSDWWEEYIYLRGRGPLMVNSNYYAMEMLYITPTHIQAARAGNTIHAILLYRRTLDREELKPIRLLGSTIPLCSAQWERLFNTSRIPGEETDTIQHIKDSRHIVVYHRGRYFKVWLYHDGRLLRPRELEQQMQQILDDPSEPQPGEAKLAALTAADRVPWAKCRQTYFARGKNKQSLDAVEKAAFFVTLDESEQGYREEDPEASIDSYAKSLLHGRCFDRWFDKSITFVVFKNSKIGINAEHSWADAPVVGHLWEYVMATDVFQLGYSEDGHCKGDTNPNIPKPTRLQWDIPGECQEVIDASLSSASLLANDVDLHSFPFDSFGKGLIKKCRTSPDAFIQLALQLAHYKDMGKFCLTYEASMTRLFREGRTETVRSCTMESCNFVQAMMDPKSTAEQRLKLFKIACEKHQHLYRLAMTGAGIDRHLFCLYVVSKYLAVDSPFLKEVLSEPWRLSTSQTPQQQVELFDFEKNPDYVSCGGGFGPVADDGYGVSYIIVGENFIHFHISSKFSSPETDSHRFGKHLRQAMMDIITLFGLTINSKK
- PROTOCOL TEXT: Inhibition of rat CPT1 in rat mitochondria
PARAMETER: IC50 (µM)
Numbers only; they are read as µM.

Exam item: Send back Carnitine O-palmitoyltransferase 1, liver isoform (Rattus norvegicus) IC50 of COc1cccc2c1C(=O)c1c(O)c3c(c(O)c1C2=O)C[C@@](O)(C(=O)CO)C[C@@H]3O[C@H]1C[C@H](N)[C@H](O)[C@H](C)O1 [DOXORUBICIN] only.
Marked response: 250

###

- TARGET SYSTEM: Carnitine O-palmitoyltransferase 1, muscle isoform (Homo sapiens, UniProt Q92523)
- Sequence (Q92523 whole entry, canonical isoform): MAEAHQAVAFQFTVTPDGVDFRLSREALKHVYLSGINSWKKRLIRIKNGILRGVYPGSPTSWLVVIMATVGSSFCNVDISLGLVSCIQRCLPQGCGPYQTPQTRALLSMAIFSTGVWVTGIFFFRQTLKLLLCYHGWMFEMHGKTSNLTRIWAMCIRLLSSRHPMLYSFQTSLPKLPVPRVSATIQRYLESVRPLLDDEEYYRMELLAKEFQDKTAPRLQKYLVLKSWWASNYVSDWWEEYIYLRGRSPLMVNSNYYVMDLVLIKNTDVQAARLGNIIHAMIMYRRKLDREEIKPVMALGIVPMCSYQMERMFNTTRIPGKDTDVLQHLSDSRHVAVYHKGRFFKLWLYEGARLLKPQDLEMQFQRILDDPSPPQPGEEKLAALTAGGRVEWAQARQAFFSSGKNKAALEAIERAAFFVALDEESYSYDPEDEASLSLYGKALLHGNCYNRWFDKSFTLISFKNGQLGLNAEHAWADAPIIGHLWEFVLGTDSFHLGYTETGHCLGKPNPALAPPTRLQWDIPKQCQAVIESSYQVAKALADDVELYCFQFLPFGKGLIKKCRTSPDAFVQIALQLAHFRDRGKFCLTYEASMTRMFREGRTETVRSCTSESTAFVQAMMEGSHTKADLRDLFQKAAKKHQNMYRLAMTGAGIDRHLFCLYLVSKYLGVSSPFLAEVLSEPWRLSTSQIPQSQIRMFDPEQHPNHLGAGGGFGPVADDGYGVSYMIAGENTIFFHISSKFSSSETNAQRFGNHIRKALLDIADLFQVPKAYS
- PROTOCOL TEXT: Inhibition of CPT1B
PARAMETER: IC50 (nM)
I only need the number, in nM, no unit after it.

Exam item: Tell us which IC50 value is on record for CCCCCCCC[C@H]1OC(=O)C(CSCCNC(=O)CCNC(=O)[C@H](O)C(C)(C)COP(=O)(O)OP(=O)(O)OC[C@H]2O[C@@H](n3cnc4c(N)ncnc43)[C@H](O)[C@@H]2OP(=O)(O)O)[C@@H]1C(=O)O (some centres not stated)
Marked response: 360
